Where these numbers come from: patent EP0364581A1

Listing: Kornzahl der Ähre bei freier Bestäubung of selected molecules
Test system: tetraploidem Roggen Sorte Belta
Assay: field test of gametocidal activity (sterilisation of anthers)
Format: in vivo
Details: V. Periode, 1%ige wäßrige Emulsion, 6 kg/ha

COC(=O)C1CCC=CC1C (stereo not shown) = 44,2

## Task Kornzahl der Ähre bei freier Bestäubung lookup needed for CCCOC(=O)c1ccccc1C(=O)OCCC , thanks.
## Result 40,8

## Task Next molecule: CC1C=CCCC1C(=O)O (stereo not shown)
## Result 45,6

## Task Note, next up: CCCCCCOC(=O)c1ccccc1C(=O)OCCCCCC
## Result 45,9

## Task Repeat with CCCCOC(=O)c1ccccc1C(=O)OCCCC
## Result 43,1

## Task Also, C=CCOC(=O)c1ccccc1C(=O)OCC=C please.
## Result 41,6

## Task One more molecule: CC(C)COC(=O)c1ccccc1C(=O)OCC(C)C
## Result 40,4

###

Tested on: Winterweizen Mironovskaya 808
Assay: field test of gametocidal activity (sterilisation of anthers)
Type: in vivo
Conditions: treated in V. Periode der Organogenese, 2%ige wäßrige Emulsion, 20 kg/ha
Entries and their Kornzahl der Ähre im Isolator values follow.

CCCCCCOC(=O)c1ccccc1C(=O)OCCCCCC = 4,2

## Task Give the measured Kornzahl der Ähre im Isolator of CC1C=CCCC1C(=O)O.N (centres unmarked) .
## Result 0,6

## Task Here is the next compound: CC(C)COC(=O)c1ccccc1C(=O)OCC(C)C
## Result 0,2

## Task Request: COC(=O)C1CCC=CC1C (centres unmarked)
## Result 0,0

## Task And what about the compound CCCOC(=O)c1ccccc1C(=O)OCCC ?
## Result 5,0

## Task Now the same for CCCCOC(=O)c1ccccc1C(=O)OCCCC
## Result 0,0

## Task Repeat for the following compound: CC1C=CCCC1C(=O)[O-].[K+] (centres unmarked)
## Result 3,2

## Task Same question for CCOC(=O)c1ccccc1C(=O)OCC please.
## Result 0,5

###

System: Sommerweizen Moskovskaya 35
Experiment: field test of gametocidal activity (sterilisation of anthers)
Type: in vivo
Settings: V. Periode, 1%ige wäßrige Emulsion, 10 kg/ha, control = 100
READOUT: Prozentsatz des Ansetzens der freier Bestäubung

Worked cases, Prozentsatz des Ansetzens der freier Bestäubung given:
CC(C)COC(=O)c1ccccc1C(=O)OCC(C)C [Beispiel 28, Phthalsäurediisobutylester] = 95,8%
C=CCOC(=O)c1ccccc1C(=O)OCC=C [Beispiel 27, Phthalsäurediallylester] = 94,0%
CCCOC(=O)c1ccccc1C(=O)OCCC [Beispiel 26, Phthalsäuredipropylester] = 86,1%
CC1C=CCCC1C(=O)[O-].[K+] (stereo not drawn) [Beispiel 23] = 92,8%
CCOC(=O)C1CCC=CC1C (stereo not drawn) [Beispiel 24, 2-Methyl-3-zyklohexenkarbon-äthylester] = 89,2%

# context switch: different compound, same Prozentsatz des Ansetzens der freier Bestäubung
## Task Quick one: Prozentsatz des Ansetzens der freier Bestäubung of O=C([O-])c1ccccc1.[K+] [Beispiel 29, Kaliumsalz der Benzoesäure] ?
## Result 99,4%

###

System: Winterweizens Sorte Polesskaya-70
Assay: field test of gametocidal activity (sterilisation of anthers)
Format: in vivo, Winterweizen
Details: V. Periode, 2%ige wäßrige Emulsion, 16 kg/ha
Quick list: Kornzahl der Ähre bei freier Bestäubung per entry.

Here is how some compounds turned out for Kornzahl der Ähre bei freier Bestäubung.
C=CCOC(=O)c1ccccc1C(=O)OCC=C [Beispiel 10, Phthalsäurediallylester] = 35,6
CCOC(=O)c1ccccc1C(=O)OCC [Beispiel 9, Phthalsäurediäthylester] = 36,8
CCCCCCOC(=O)c1ccccc1C(=O)OCCCCCC [Beispiel 11, Phthalsäuredihexylester] = 36,0
CC1C=CCCC1C(=O)O.N (centres unmarked) [Beispiel 13] = 36,9

## Task I would be grateful if you could share the reported Kornzahl der Ähre bei freier Bestäubung for CC1C=CCCC1C(=O)[O-].[K+] (centres unmarked) [Beispiel 12] .
## Result 35,8
